- assayExplanation: self-splicing fitness, log relative to wild type (ln ratio); higher = more splicing; Tetrahymena group I intron in knt gene, E. coli kanamycin selection, DiMSum; sequences stand for … in CUCUCU…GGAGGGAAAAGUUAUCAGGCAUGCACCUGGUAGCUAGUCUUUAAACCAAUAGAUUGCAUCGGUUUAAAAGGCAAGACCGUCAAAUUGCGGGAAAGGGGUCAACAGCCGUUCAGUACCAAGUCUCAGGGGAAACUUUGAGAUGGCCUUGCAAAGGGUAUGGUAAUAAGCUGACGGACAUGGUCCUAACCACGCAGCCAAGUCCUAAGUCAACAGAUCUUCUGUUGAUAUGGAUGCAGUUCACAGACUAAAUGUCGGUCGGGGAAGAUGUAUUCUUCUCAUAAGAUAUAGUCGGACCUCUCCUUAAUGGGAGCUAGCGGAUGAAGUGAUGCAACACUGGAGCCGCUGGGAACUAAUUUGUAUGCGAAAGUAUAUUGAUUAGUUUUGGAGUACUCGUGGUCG;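 further: selection with 25 µg/mL kanamycin versus none on LB agar overnight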
- assayContext: 37 °C
reportedMetric: self-splicing fitness (ln)

Examples with answers:
sequencetext=GCUAAGCAAUAUUACGCUUU reportedmetric="self-splicing fitness (ln)" measvalue=-1.71
sequencetext=CGAAAGCAAUAUUACGUUGG reportedmetric="self-splicing fitness (ln)" measvalue=-0.961
sequencetext=UCUGAGCAAUAUUACGUAUG reportedmetric="self-splicing fitness (ln)" measvalue=-2.07

Could you please provide reported self-splicing fitness (ln) for CGUCAGCAAUAUUACGAUAU ? Thanks!
-0.978

Could you please provide reported self-splicing fitness (ln) for UCCUAGCAAUAUUACGGAGC ? Thanks!
-1.98

Could you please provide reported self-splicing fitness (ln) for GUAUAGCAAUAUUACGAUUC ? Thanks!
0.598

Could you please provide reported self-splicing fitness (ln) for UUUUAGCAAUAUUACGUUUG ? Thanks!
-0.497

Could you please provide reported self-splicing fitness (ln) for CAACAGCAAUAUUACGGUAG ? Thanks!
-0.746

Could you please provide reported self-splicing fitness (ln) for UUGUAGCAAUAUUACGCCGG ? Thanks!
-0.179

Could you please provide reported self-splicing fitness (ln) for AUAAAGCAAUAUUACGCUGG ? Thanks!
-0.293

Could you please provide reported self-splicing fitness (ln) for UGGUAGCAAUAUUACGCUUA ? Thanks!
-0.553

Could you please provide reported self-splicing fitness (ln) for GAUUAGCAAUAUUACGAUUA ? Thanks!
-0.0882

Could you please provide reported self-splicing fitness (ln) for AAAUAGCAAUAUUACGAACC ? Thanks!
1.21

Could you please provide reported self-splicing fitness (ln) for GUGCAGCAAUAUUACGAUAU ? Thanks!
-0.244

Could you please provide reported self-splicing fitness (ln) for CCAGAGCAAUAUUACGGUGA ? Thanks!
-2.6

Could you please provide reported self-splicing fitness (ln) for GGAGAGCAAUAUUACGGUAU ? Thanks!
-2.2

Could you please provide reported self-splicing fitness (ln) for CACUAGCAAUAUUACGACGA ? Thanks!
-1.16

Could you please provide reported self-splicing fitness (ln) for GUAAAGCAAUAUUACGGCAU ? Thanks!
-0.287

###

- assayExplanation: self-splicing fitness, log relative to wild type (ln ratio); higher = more splicing; Tetrahymena group I intron in knt gene, E. coli kanamycin selection, DiMSum; sequences stand for … in CUCUCU…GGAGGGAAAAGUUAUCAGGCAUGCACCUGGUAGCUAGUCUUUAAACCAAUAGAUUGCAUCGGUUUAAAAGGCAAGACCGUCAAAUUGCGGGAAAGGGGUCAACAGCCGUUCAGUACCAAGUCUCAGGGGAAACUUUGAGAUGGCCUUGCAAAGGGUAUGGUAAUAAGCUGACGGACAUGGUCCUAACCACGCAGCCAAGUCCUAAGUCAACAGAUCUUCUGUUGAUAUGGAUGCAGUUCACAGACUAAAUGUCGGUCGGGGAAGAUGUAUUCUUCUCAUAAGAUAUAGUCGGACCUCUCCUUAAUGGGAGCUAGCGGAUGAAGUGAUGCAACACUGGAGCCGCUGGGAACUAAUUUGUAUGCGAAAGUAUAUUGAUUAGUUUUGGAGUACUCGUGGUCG
- assayContext: 30 °C
reportedMetric: self-splicing fitness (ln)
Just the number, please, no unit attached.

sequencetext=CGCAAGCAAUAUUACGCAGA reportedmetric="self-splicing fitness (ln)" measvalue=-2.26
sequencetext=ACCCAGCAAUAUUACGUAAA reportedmetric="self-splicing fitness (ln)" measvalue=-0.691
sequencetext=AGAGAGCAAUAUUACGCCUU reportedmetric="self-splicing fitness (ln)" measvalue=-3.56

Now take the following sequence into account.
Could you please provide reported self-splicing fitness (ln) for AAGGAGCAAUAUUACGCAUC ? Thanks!
-5.17

src = the supplement of paper PMC7877785
